# target-system: androgen receptor (AR) (Homo sapiens, UniProt P10275, T878A)
# Sequence (P10275 whole entry T878A): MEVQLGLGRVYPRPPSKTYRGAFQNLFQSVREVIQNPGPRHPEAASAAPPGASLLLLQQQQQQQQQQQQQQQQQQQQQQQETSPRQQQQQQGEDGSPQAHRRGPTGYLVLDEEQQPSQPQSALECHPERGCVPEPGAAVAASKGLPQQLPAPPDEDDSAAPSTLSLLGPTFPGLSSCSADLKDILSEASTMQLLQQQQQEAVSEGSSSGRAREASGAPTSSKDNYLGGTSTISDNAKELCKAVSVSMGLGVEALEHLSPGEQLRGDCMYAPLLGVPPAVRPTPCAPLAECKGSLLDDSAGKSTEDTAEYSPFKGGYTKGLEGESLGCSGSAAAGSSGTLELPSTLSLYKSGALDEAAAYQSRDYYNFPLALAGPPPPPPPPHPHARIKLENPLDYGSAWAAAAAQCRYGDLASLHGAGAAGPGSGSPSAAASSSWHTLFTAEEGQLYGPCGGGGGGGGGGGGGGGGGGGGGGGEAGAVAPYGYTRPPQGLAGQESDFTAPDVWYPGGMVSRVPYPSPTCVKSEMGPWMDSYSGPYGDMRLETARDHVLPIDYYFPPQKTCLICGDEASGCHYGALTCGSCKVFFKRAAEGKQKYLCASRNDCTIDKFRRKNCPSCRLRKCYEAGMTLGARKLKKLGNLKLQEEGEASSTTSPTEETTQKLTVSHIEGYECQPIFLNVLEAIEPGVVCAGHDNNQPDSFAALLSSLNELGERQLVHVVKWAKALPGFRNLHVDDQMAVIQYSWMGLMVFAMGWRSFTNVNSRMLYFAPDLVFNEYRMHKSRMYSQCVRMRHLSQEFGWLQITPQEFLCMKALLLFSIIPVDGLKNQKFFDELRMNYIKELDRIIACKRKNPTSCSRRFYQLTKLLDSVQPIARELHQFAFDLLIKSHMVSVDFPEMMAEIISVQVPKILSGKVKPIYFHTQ
# assay-procedure: eGFP cellular AR transcription assay (LNCaP eGFP cells, LN-ARR2PB-eGFP)
# protocol-conditions: eGFP IC50 (μM), Series 1
We label by threshold. Values of IC50 strictly beneath 0.6 µM are True. Values of 0.6 µM and up are False.

INSERT INTO assay_data (smiles_data, class_name) VALUES
  ('Cc1sc(N2CCOCC2)nc1-c1ccccc1', 'False'),
  ('c1ccc(-c2csc(N3CCOCC3)n2)cc1', 'True'),
  ('CS(=O)(=O)c1c(F)cccc1-c1csc(N2CCOCC2)n1', 'False'),
  ('Brc1cn(-c2csc(N3CCOCC3)n2)cn1', 'False');

###

# target-system: UniProt P10275
# assay-procedure: ARR3tk-luciferase reporter assay in PC3 cells, wild-type AR
# protocol-conditions: transient AR, R1881
pIC50: −log10 of the molar value.
pIC50 values by entry
readout: pIC50

INSERT INTO results (smiles_data, value_observed) VALUES
  ('c1ccc(-c2csc(N3CCOCC3)n2)cc1', 5.63),
  ('Brc1ncn(-c2csc(N3CCOCC3)n2)c1Br', 6.47);

###

# Tested on: PSA
# assay-procedure: Prostate-specific antigen (PSA) assay, secreted PSA from the eGFP assay plates
# Format: cell-based, human
# protocol-conditions: Series 1
IC50 values by entry
readout: IC50 (µM)

INSERT INTO results (compound, value_observed) VALUES
  ('Clc1ccc(-c2csc(N3CCOCC3)n2)c(Cl)c1', 1.32),
  ('Cc1ncn(-c2csc(N3CCOCC3)n2)c1C', 2.42),
  ('FC(F)(F)C1CN(c2nc(-c3ccccc3)cs2)CCO1 (centres unmarked)', 0.16),
  ('Clc1ccc(-c2csc(N3CCOCC3)n2)cc1Cl', 2.96),
  ('Fc1ccc(F)c(-c2csc(N3CCOCC3)n2)c1', 10.5);

###

# target-system: androgen receptor (AR) (Homo sapiens, UniProt P10275, T878A)
# assay-procedure: eGFP cellular AR transcription assay (LNCaP eGFP cells, LN-ARR2PB-eGFP)
We label by threshold. Values of % Inhibition (3 μM) strictly beneath 20% are t. Values of 20% and up are f.

INSERT INTO results (compound, class_name) VALUES
  ('O=C1C(Cl)=C(N2CCOCC2)C(=O)N1c1ccccc1Cl [Compound 14475]', 't'),
  ('COc1ccc(-c2nc(-c3ccccc3)cs2)cc1 [Compound 14419]', 'f'),
  ('Cc1sc(N2CCOCC2)nc1-c1ccc(F)cc1 [Compound 14341]', 'f'),
  ('O=C1C(Cl)=C(N2CCOCC2)C(=O)N1c1ccccc1 [Compound 14476]', 't');

###

# target-system: AR Y594A mutant (Homo sapiens, UniProt P10275, Y594A)
# Sequence (P10275 whole entry Y594A): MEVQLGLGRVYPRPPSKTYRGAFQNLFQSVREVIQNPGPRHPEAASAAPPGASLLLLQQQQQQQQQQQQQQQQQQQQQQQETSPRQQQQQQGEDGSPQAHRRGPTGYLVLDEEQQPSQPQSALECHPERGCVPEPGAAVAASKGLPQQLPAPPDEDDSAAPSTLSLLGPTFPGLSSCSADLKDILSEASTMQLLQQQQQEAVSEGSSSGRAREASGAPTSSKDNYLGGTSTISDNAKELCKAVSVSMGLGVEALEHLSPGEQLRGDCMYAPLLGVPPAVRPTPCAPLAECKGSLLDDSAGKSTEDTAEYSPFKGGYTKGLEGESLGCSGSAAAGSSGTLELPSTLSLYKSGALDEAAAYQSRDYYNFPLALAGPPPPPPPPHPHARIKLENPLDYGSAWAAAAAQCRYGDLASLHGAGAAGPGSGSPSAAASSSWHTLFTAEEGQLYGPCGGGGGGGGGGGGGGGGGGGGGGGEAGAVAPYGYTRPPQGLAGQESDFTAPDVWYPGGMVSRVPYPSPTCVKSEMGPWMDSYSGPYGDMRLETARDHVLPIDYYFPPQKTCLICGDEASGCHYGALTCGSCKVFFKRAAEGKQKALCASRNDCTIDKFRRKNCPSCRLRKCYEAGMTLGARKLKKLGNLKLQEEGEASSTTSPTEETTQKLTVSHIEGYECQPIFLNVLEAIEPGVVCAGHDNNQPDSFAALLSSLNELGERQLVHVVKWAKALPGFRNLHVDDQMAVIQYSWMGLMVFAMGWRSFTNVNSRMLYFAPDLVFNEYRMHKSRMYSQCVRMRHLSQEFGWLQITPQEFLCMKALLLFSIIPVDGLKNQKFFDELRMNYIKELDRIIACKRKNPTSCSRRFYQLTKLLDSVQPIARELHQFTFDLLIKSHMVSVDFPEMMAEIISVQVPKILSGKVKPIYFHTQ
# assay-procedure: ARR3tk-luciferase reporter assay in PC3 cells, AR Y594A
pIC50: −log10 of the molar value.
readout: pIC50

INSERT INTO measurements (smiles_data, readout, value_observed) VALUES
  ('c1ccc(-c2csc(N3CCOCC3)n2)cc1', 'pIC50', '5.22 to 5.52'),
  ('Brc1ncn(-c2csc(N3CCOCC3)n2)c1Br', 'pIC50', '5.22 to 5.52');
